Target: rat PGT (Rattus norvegicus (Rat))
Assay: [3H]PGE2 uptake inhibition in MDCK cells stably transfected with rat PGT (percent inhibition and IC50)
Type: cell-based
Details: 0.1 μM compound; inhibition of [3H]PGE2 uptake
Parameter Measured: Inh (% of Ctl) 0.1 μM

Example results:
O=C(NCCOCCOCCNc1nc(Nc2ccc(O)cc2)nc(Nc2ccc(C(=O)NCc3ccccc3-c3ccccc3)cc2)n1)c1ccccc1 [compound 86]; 50.0 % of Ctl
COC(=O)Cc1ccc(Nc2nc(NCCOCCOCCNC(=O)c3ccccc3)nc(Nc3ccc(C(=O)NCc4ccccc4)cc3)n2)cc1 [compound 122]; 5.8 % of Ctl

Consider the molecule shown here: O=C(NCCOCCOCCNc1nc(Nc2ccc(O)cc2)nc(Nc2ccc(C(=O)NCc3cccc(F)c3F)cc2)n1)c1ccccc1 [compound 126] What is its recorded Inh (% of Ctl) 0.1 μM?
24.0 % of Ctl

----------
Biological target: UniProt:Q00910
Test: [3H]PGE2 uptake inhibition in MDCK cells stably transfected with rat PGT (percent inhibition and IC50)
Type: cell-based
Details: 5 μM compound; inhibition of [3H]PGE2 uptake
Measured Inh (% of Ctl) 5 μM, listed per entry for reference.

O=C(NCCOCCNc1nc(Nc2ccc(O)cc2)nc(Nc2ccc(C(=O)NCc3ccc(Cl)cc3)cc2)n1)c1ccccc1 [compound 98]; 75.1 % of Ctl
O=C(NCCOCCOCCNc1nc(Nc2ccc(O)cc2)nc(Nc2ccc(C(=O)NCc3ccc(Br)cc3)cc2)n1)c1ccccc1 [compound 109]; 85.1 % of Ctl
O=C(NCCOCCOCCNc1nc(NCCO)nc(Nc2ccc(OCc3ccccc3)cc2)n1)c1ccccc1 [compound 6]; 11.7 % of Ctl
O=C(NCCOCCOCCNc1nc(Nc2ccccc2)nc(Nc2ccc(O)cc2)n1)c1ccccc1C(F)(F)F [compound 72]; 66.1 % of Ctl
O=C(NCCOCCOCCNc1nc(Nc2ccc(O)cc2)nc(Nc2ccc(C(=O)NCc3ccccc3)c(C(F)(F)F)c2)n1)c1ccccc1 [compound 82]; 47.6 % of Ctl
CCCCCCCC(=O)c1ccc(Nc2nc(NCCOCCOCCNC(=O)c3ccccc3)nc(Nc3ccc(O)cc3)n2)cc1 [compound 76]; 70.5 % of Ctl
COc1cc(Nc2nc(NCCOCCOCCNC(=O)c3ccccc3)nc(Nc3ccc(O)cc3)n2)ccc1C(=O)NCc1ccccc1 [compound 81]; 80.1 % of Ctl
NC(=O)c1ccc(Nc2nc(NCCOCCOCCNC(=O)c3ccccc3)nc(Nc3ccc(O)cc3)n2)cc1 [compound 20]; 14.4 % of Ctl
O=C(NCCOCCOCCNc1nc(Nc2ccc(O)cc2)nc(Nc2ccc(N3CCOCC3)cc2)n1)c1ccccc1 [compound 24]; 9.2 % of Ctl
O=C(NCCOCCOCCNc1nc(Cl)nc(Nc2ccc(OCc3ccccc3)cc2)n1)c1ccccc1 [compound 3]; 1.7 % of Ctl

Consider the compound shown here: O=C(NCCOCCOCCNc1nc(Nc2ccccc2)nc(Nc2ccc3[nH]nnc3c2)n1)c1ccccc1 [compound 95] What is its recorded Inh (% of Ctl) 5 μM?
23.4 % of Ctl

Consider the compound shown here: COCCOCCOCCNc1nc(NCCOCCOCCNC(=O)c2ccccc2)nc(Nc2ccc(OCc3ccccc3)cc2)n1 [compound 7] What is its recorded Inh (% of Ctl) 5 μM?
22.5 % of Ctl

Consider the compound shown here: COC(=O)[C@@H](NC(=O)c1ccc(Nc2nc(NCCOCCOCCNC(=O)c3ccccc3)nc(Nc3ccc(O)cc3)n2)cc1)c1ccccc1 [compound 74] What is its recorded Inh (% of Ctl) 5 μM?
82.0 % of Ctl

Consider the compound shown here: O=C(NCCOCCOCCNc1nc(NCCO)nc(Nc2ccc(O)cc2)n1)c1ccccc1 [compound 10] What is its recorded Inh (% of Ctl) 5 μM?
15.0 % of Ctl

Consider the compound shown here: O=C(NCCOCCOCCNc1nc(O)nc(Nc2ccc(O)cc2)n1)c1ccccc1 [compound 12] What is its recorded Inh (% of Ctl) 5 μM?
4.7 % of Ctl

Every entry's value here was drawn from patent US8952150B2.
